Target: human GPR18 (Homo sapiens, UniProt Q14330)
Construct: host or cells: CHO cells
Sequence (Q14330 1-331): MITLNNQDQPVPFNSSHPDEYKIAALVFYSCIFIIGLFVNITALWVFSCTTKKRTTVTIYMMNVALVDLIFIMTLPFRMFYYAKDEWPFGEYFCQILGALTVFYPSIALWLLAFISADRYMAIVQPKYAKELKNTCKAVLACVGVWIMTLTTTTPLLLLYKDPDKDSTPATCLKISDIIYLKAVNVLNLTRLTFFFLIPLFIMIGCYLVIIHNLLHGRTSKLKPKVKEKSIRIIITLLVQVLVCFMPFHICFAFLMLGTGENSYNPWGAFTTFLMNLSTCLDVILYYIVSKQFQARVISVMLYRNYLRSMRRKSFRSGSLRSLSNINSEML
Assay: β-Arrestin PathHunter assay, recombinant CHO cells expressing GPR18
Format: cell-based
pIC50: −log10 of the molar value.
Provide the reported pIC50 of each item.

// pIC50 lookup, molecule = COC(=O)[C@@H](NC(=O)c1nn(CC2CCCCC2)c2ccccc12)C(C)(C)C , result: ~5.00

get_value(item= NC(=O)[C@H](Cc1ccccc1)NC(=O)c1nn(CC2CCCCC2)c2ccccc12 , readout=pIC50) returns ~5.00

// recorded pIC50 for CC(C)[C@H](NC(=O)c1nn(CCCCCCl)c2ccccc12)C(N)=O : < 5.00

Kindly note the recorded pIC50 for O=C(c1ccc(Cl)c2ccccc12)c1cn(CCCCCF)c2ccccc12 , which is < 5.00

So for CC(C)(NC(=O)c1nn(CC2CCOCC2)c2ccccc12)c1ccccc1 , the logged pIC50 turned out to be < 5.00

Looking up CC(C)[C@H](NC(=O)c1nn(Cc2ccccc2F)c2ccccc12)C(N)=O [compound 19, AB-FUBINACA (2-F-benzyl-isomer)] , I see its pIC50 listed as < 5.00

Sure, the documented pIC50 for CC(C)[C@H](NC(=O)c1nn(CC2CCCCC2)c2ccccc12)C(N)=O is < 5.00

The recorded pIC50 for entry CC(C)(C)[C@H](NC(=O)c1nn(Cc2ccc(F)cc2)c2ccccc12)C(N)=O equals < 5.00

----------
Target: human CB1 receptor (Homo sapiens)
Construct: expressed in transfected cells; host or cells: CHO cells (membrane preparations)
Experiment: cAMP accumulation assay, CHO cells stably expressing CB1
Assay type: cell-based
Settings: forskolin 10 µM; read-out: EC50 CB1 receptor activation, cAMP accumulation
Record form. Attribute: pEC50. Fill in for each entry.
Quick note: pEC50 values are minus log10 of concentrations in mol/L.

Kindly note the recorded pEC50 for O=C(c1ccc2c(c1)c1ccccc1n2CCCCCF)c1cccc2ccccc12 [compound 40, EG-2201] , which is 7.81

# pEC50 of COC(=O)C(NC(=O)c1ccc2c(c1)c1ccccc1n2CC1CCCCC1)C(C)(C)C (centres unmarked) [compound 41, MDMB-CHMCZCA] = 6.92

----------
Molecular target: human GPR18 (Homo sapiens)
Construct: host or cells: CHO cells
Assay: β-Arrestin PathHunter assay, recombinant CHO cells expressing GPR18
Type: cell-based
Settings: agonist mode, value in parentheses
The threshold is inclusive: Human GPR18 % activation of exactly 9% counts as class 1; values below receive class 0.

## Input Could you please find out whether O=C(c1ccc(F)c2ccccc12)c1cn(CCCCCF)c2ccccc12 has Human GPR18 % activation that meets 9% or exceeds it?
## Output class 1

## Input Human GPR18 % activation >= 9% for CCCCCn1c2ccccc2c2cc(C(=O)c3cccc4ccccc34)ccc21 ?
## Output class 0

## Input Does Human GPR18 % activation meet or surpass 9% for CC(C)(C)[C@H](NC(=O)c1cn(CC2CCCCC2)c2ccccc12)C(N)=O ?
## Output class 0

## Input Answer whether Human GPR18 % activation of CC(C)(NC(=O)c1cn(CCCCCF)c2ccccc12)c1ccccc1 is greater than or equal to 9%.
## Output class 1

## Input Test whether the compound COC(=O)[C@@H](NC(=O)c1nn(Cc2ccc(F)cc2)c2ccccc12)C(C)(C)C records Human GPR18 % activation of 9% or higher.
## Output class 1

## Input Check this compound for Human GPR18 % activation at or above 9%: CC(C)[C@H](NC(=O)c1nn(CCCCCCl)c2ccccc12)C(N)=O
## Output class 0

## Input Answer whether Human GPR18 % activation of CC(C)[C@H](NC(=O)c1cn(CCCCCF)c2ccccc12)C(N)=O is greater than or equal to 9%.
## Output class 1

----------
I'd be grateful if you could share measured pKi for these entries.
Biological target: human CB1 receptor (Homo sapiens, UniProt P21554)
Construct: expressed in transfected cells; host or cells: CHO cells (membrane preparations)
Sequence (P21554 whole entry): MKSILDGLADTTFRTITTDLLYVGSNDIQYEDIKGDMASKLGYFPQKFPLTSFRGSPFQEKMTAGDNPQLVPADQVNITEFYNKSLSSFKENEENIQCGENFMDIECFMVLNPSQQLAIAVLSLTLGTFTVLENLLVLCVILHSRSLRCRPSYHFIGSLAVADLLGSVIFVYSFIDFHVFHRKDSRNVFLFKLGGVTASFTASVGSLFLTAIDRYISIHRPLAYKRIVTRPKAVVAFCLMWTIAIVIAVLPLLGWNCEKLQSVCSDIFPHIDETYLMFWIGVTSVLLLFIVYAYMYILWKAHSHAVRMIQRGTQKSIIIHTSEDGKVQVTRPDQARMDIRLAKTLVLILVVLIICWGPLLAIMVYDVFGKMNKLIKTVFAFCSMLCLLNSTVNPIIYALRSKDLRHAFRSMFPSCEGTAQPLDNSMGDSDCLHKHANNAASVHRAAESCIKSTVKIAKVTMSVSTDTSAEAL
Assay: biochemical
Format: binding
Details: [3H]CP55,940 0.1 nM, CHO cell membranes; read-out: Ki ± SEM Human CB1
Reminder that pKi is minus the log10 of a molar concentration.

Query NC(=O)[C@H](Cc1ccccc1)NC(=O)c1cn(CCCCCF)c2ccccc12 on human CB1 receptor (Homo sapiens, UniProt P21554); pKi returned: 6.31

Summary: CC(C)[C@H](NC(=O)c1nn(CCCCCF)c2ccccc12)C(N)=O , human CB1 receptor (Homo sapiens, UniProt P21554), pKi = 8.30

pKi of COC(=O)C(NC(=O)c1ccc2c(c1)c1ccccc1n2CC1CCCCC1)C(C)(C)C (stereo not drawn) , assay on human CB1 receptor (Homo sapiens, UniProt P21554), is 8.24

Readout pKi for CC[C@H](C)[C@H](NC(=O)c1nn(CCCCCF)c2ccccc12)C(N)=O (single isomer, unassigned; isomer 2) [compound 26, 5F-ADB-PINACA-isomer 2] , test system human CB1 receptor (Homo sapiens, UniProt P21554), was 8.51

Reported human CB1 receptor (Homo sapiens, UniProt P21554) pKi for item COC(=O)[C@@H](NC(=O)c1nn(CCCCCF)c2ccccc12)C(C)C was 8.95

So the reported pKi for CC(C)(C)[C@H](NC(=O)c1nn(CC2CCCCC2)c2ccccc12)C(N)=O , on human CB1 receptor (Homo sapiens, UniProt P21554), turned out to be 9.48

human CB1 receptor (Homo sapiens, UniProt P21554) pKi of COC(=O)[C@@H](NC(=O)c1nn(CC2CCCCC2)c2ccccc12)C(C)(C)C is 9.87

Tested on human CB1 receptor (Homo sapiens, UniProt P21554): COC(=O)[C@@H](NC(=O)c1nn(Cc2ccc(F)cc2)c2ccccc12)C(C)(C)C . Observed pKi: 10.01

Summary line: NC(=O)[C@H](Cc1ccccc1)NC(=O)c1nn(CC2CCCCC2)c2ccccc12 , human CB1 receptor (Homo sapiens, UniProt P21554), reported pKi = 8.01

Tested on human CB1 receptor (Homo sapiens, UniProt P21554), the item CC(C)(C)[C@H](NC(=O)c1cn(CC2CCCCC2)c2ccccc12)C(N)=O showed pKi equal to 8.91

# lookup: O=C(c1cccc2ccccc12)c1nc2ccccc2n1CCCCCF on human CB1 receptor (Homo sapiens, UniProt P21554), pKi = 6.30

The compound CC(C)[C@H](NC(=O)c1nn(Cc2cccc(F)c2)c2ccccc12)C(N)=O [compound 18, AB-FUBINACA (3-F-benzyl-isomer)] , when measured on human CB1 receptor (Homo sapiens, UniProt P21554), yielded pKi of 7.90

Form field, pKi with human CB1 receptor (Homo sapiens, UniProt P21554), item CCCCCn1cc(C(=O)N[C@H](C(=O)OC)C(C)C)c2ccccc21 : 7.82

Tested system human CB1 receptor (Homo sapiens, UniProt P21554); pKi recorded for CC(C)[C@H](NC(=O)c1cn(CCCCCF)c2ccccc12)C(N)=O was 7.46

Tested on human CB1 receptor (Homo sapiens, UniProt P21554): COC(=O)[C@@H](NC(=O)c1nn(CC2CCCCC2)c2ccccc12)C(C)C . Observed pKi: 9.47

----------
Task for the reader: assign each of the following molecules its reported Human GPR18 % activation.
Molecular target: human GPR18 (Homo sapiens)
Construct: host or cells: CHO cells
Sequence (Q14330 1-331): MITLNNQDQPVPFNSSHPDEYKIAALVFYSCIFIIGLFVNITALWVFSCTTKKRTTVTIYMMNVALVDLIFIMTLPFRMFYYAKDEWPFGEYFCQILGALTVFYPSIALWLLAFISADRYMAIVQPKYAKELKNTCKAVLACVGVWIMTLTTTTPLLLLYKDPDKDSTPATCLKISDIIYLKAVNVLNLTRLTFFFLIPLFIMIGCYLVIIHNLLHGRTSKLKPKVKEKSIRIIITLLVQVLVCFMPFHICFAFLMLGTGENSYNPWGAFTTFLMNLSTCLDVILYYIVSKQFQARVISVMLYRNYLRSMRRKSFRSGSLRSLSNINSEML
Test: β-Arrestin PathHunter assay, recombinant CHO cells expressing GPR18
Assay type: cell-based
Conditions: agonist mode, value in parentheses
Give your result in % as a bare value.

Query CCCCCn1nc(C(=O)N[C@H](C(=O)OC)C(C)C)c2ccccc21 yields Human GPR18 % activation of 42

Quick note, Human GPR18 % activation for CC(C)(NC(=O)c1nn(CC2CCOCC2)c2ccccc12)c1ccccc1 landed at 11

Consider NC(=O)[C@H](Cc1ccccc1)NC(=O)c1cn(CCCCCF)c2ccccc12 . Its measured Human GPR18 % activation is 15

According to the records, this molecule O=C(c1cccc2ccccc12)c1cn(Cc2ccc(F)cc2)c2ccccc12 displays Human GPR18 % activation of 20

COC(=O)[C@@H](NC(=O)c1nn(CCCCCF)c2ccccc12)C(C)C has a reported Human GPR18 % activation of 1

Just so you know, measured Human GPR18 % activation for COC(=O)[C@@H](NC(=O)c1cn(CCCCCF)c2ccccc12)C(C)C came out at 2

For CCCCCn1cc(C(=O)N[C@H](C(=O)OC)C(C)C)c2ccccc21 the molecule record lists Human GPR18 % activation as 13

The molecule listed as O=C(c1ccc2c(c1)c1ccccc1n2CCCCCF)c1cccc2ccccc12 shows Human GPR18 % activation equal to 3

get_value(item= COC(=O)[C@@H](NC(=O)c1nn(CC2CCCCC2)c2ccccc12)C(C)(C)C , readout=Human GPR18 % activation) returns 27

The molecule O=C(Nc1cccc2ccccc12)c1cn(Cc2ccc(F)cc2)c2ccccc12 showed Human GPR18 % activation equal to 20

The value of Human GPR18 % activation measured for the molecule COC(=O)[C@@H](NC(=O)c1cn(CC2CCCCC2)c2ccccc12)C(C)(C)C turned out to be 5

Lab note: CC(C)(C)[C@H](NC(=O)c1nn(CC2CCCCC2)c2ccccc12)C(N)=O gave Human GPR18 % activation of 6

// Human GPR18 % activation value for COC(=O)[C@@H](NC(=O)c1nn(CC2CCCCC2)c2ccccc12)C(C)C : 19

Human GPR18 % activation in this record for CC(C)(C)[C@H](NC(=O)c1cn(CCCCCF)c2ccccc12)C(N)=O : 27

Entry O=C(c1ccc(Cl)c2ccccc12)c1cn(CCCCCF)c2ccccc12 , Human GPR18 % activation reported as 16

Reported Human GPR18 % activation ( CCCCCn1cc(C(=O)NC(C)(C)c2ccccc2)c2ccccc21 ) = 19

Recorded result, O=C(c1cccc2ccccc12)c1nc2ccccc2n1CCCCCF , Human GPR18 % activation: 42

Given item CC[C@H](C)[C@H](NC(=O)c1nn(CCCCCF)c2ccccc12)C(N)=O (single isomer, unassigned; isomer 2) [compound 26, 5F-ADB-PINACA-isomer 2] , the value recorded as its Human GPR18 % activation is 8

Source of measurements: paper PMC6002460
